Ref: patent US20260317296A1

# testedOn: aggregated 4R-tau in AD tissue (Homo sapiens)
# Construct: autopsy-confirmed postmortem AD, PSP, and CBD human brain tissues; tissue UCSF Neurodegenerative Disease Brain Bank; host or cells: post-mortem human AD brain homogenate
# Sequence (P10636 1-441 isoform P10636-8): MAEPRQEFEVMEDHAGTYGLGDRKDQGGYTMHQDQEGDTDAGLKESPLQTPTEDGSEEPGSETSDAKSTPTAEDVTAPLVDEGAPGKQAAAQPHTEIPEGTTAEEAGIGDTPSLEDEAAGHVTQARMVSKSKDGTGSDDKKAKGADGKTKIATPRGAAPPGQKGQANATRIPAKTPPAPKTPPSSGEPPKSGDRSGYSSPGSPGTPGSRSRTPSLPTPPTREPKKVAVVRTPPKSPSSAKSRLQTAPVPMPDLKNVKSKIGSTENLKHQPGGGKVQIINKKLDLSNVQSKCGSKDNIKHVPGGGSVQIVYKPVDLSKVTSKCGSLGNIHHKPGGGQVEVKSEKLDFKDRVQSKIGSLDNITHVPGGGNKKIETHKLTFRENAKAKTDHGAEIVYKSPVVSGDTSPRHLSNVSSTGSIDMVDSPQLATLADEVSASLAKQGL
# Sequence (P10636 1-410 isoform P10636-5): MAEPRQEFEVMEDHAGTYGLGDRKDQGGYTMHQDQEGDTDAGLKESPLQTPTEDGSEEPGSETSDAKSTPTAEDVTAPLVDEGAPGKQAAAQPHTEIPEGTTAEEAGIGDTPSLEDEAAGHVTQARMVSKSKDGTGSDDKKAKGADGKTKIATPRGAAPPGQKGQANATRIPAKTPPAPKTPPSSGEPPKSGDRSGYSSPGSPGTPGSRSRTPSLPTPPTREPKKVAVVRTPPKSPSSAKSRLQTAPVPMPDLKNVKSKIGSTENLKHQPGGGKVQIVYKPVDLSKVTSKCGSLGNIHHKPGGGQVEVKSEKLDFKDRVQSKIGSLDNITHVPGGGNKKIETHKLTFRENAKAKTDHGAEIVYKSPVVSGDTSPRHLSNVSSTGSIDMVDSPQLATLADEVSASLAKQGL
# method: In vitro competition (Ki) assay, AD brain tissue homogenate
# Assay type: binding
# testContext: vs [^3H]2, n = 1, Ki=IC50/2, read-out: Inhibition Constant (Ki) versus [^3H]2
This section presents molecules with their documented Ki values.
Kindly write the number and append the unit.

## Input Param item = Fc1ccc2cc(-c3ncc(N4CCOCC4)cc3F)[nH]c2c1 [Compound 98] ; retrieve measured Ki.
## Output 0.017 µM

## Input Param item = Fc1ccc2cc(-c3cnc(N4CCOCC4)cc3F)[nH]c2c1 [Compound 82] ; retrieve measured Ki.
## Output 0.011 µM
